Just for reference, PubChem BioAssay is where these values come from.

Entries annotated with measured z-score
test: PSAC antagonists in infected red cells, primary screen, cell-based, P. falciparum Indochina, OD700, 18 h (AID 1157); conditions: P. falciparum Indochina infected erythrocytes, osmotic lysis OD700, 18 h; higher = more signal, called active from +8 up or from −8 down
ASSAY_METRIC: z-score

[[record]]
compound = "CC(C)C(CO)N1C(=O)[C@@H]2[C@H]3C(=O)OCC=C[C@H]3OC23C=CCN(C(C)C)C(=O)[C@@H]13 (stereo partly drawn)"
reported = 0.649

[[record]]
compound = "C=C(COC)/C(=C/C[C@H](OC(=O)c1ccncc1)c1ccc(OCCO)cc1)c1cnc2ccccc2c1"
reported = 0.848

[[record]]
compound = "COc1ccc(C(=O)Nc2ccc(CN3C(=O)[C@@]4(O[C@@H](CCO)[C@H]([Si](C)(C)c5ccc(OC)cc5)[C@H]4C)c4ccccc43)cc2)cc1"
reported = 1.75

[[record]]
compound = "CCOC(=O)C[C@H]1[C@H](OC(=O)Cc2ccc3c(c2)OCO3)[C@@H](NC(=O)c2ccc(-c3ccccc3)cc2)c2cc(OCCCO)ccc2N1C(=O)Cc1ccc(OC)cc1"
reported = 0.464

[[record]]
compound = "C=CCNC(=O)[C@@H]1[C@H]2C(=O)O[C@H](c3ccccc3)[C@H](c3ccccc3)N2[C@H](c2ccc(OCCO)cc2)[C@@]12C(=O)Nc1ccc(C#Cc3ccc(OC)cc3)cc12"
reported = 0.677

[[record]]
compound = "[N-]=[N+]=NCc1ccccc1C[C@]1(C(=O)N2CCOCC2)N=C(c2ccc(OCCCO)cc2)O[C@H]1c1ccccc1N=[N+]=[N-]"
reported = 1.92

[[record]]
compound = "O=C1OCCC/C=C\\[C@H]2OC34C=CCN(c5ccc6ccccc6c5)C(=O)[C@H]3N(CCCCCCO)C(=O)[C@@H]4C12 (stereo partly drawn)"
reported = -1.46

[[record]]
compound = "CC(C)(C)OC(=O)CC[C@]1(C(=O)O)N=C(c2ccc(OCCCO)cc2)O[C@H]1c1ccccc1N=[N+]=[N-]"
reported = 6.45

[[record]]
compound = "C=CCOC(=O)[C@H]1[C@@H]2C(=O)O[C@@H](c3ccccc3)[C@@H](c3ccccc3)N2[C@@H](c2ccc(OCCOC(=O)[C@@H]3C[C@@H]4C(=O)N[C@@H](CCCCN(C)C)C(=O)N4[C@@H]3c3ccc(O)cc3)cc2)[C@]12C(=O)Nc1ccc(I)cc12"
reported = 0.448

[[record]]
compound = "CCOC(=O)C1=CCC(c2ccccc2)N(S(=O)(=O)CC[Si](C)(C)C)C1 (stereo not drawn)"
reported = 0.561

[[record]]
compound = "[N-]=[N+]=NCc1ccccc1[C@@H]1OC(c2ccc(OCCCO)cc2)=N[C@]1(CCS(=O)(=O)c1ccccc1)C(=O)NCCN1CCOCC1"
reported = 0.763

[[record]]
compound = "COCCOC(=O)N1C(=O)[C@@]2(c3ccccc31)[C@H](c1ccc(O)cc1)N1[C@H](c3ccccc3)[C@H](c3ccccc3)OC(=O)[C@H]1[C@@H]2C(=O)NC[C@H](O)c1ccccc1"
reported = 0.563

[[record]]
compound = "CC1CC/C=C\\[C@H]2OC34C=CCN(C(C)(C)C)C(=O)[C@H]3N(CCCCCCO)C(=O)[C@@H]4C2C(=O)O1 (stereo partly drawn)"
reported = 0.771


* * *

Entries annotated with measured z-score
assay: basal 3T3-L1 adipocyte mitochondrial potential changes, profiling panel, cell-based, JC-1 fluorescence, 3T3-L1 adipocytes, 24 h, 100 nL compound (AID 1168); details: JC-1 mitochondrial fluorescence, higher = more signal, called active from +8 up or from −8 down; note: test concentration not given here
ASSAY_METRIC: z-score

[[record]]
molecule = "COC(=O)C=C(CC(O)c1cccc(Cl)c1)OC (stereo unspecified)"
assay_metric = "z-score"
reported = 0.705

[[record]]
molecule = "C=CC[C@]12N=C(c3ccc(OCCCO)cc3)O[C@H]1c1ccccc1N(Cc1ccccc1)C2=O"
assay_metric = "z-score"
reported = 2.12

[[record]]
molecule = "CC(=O)NCCCC[C@@H]1NC(=O)[C@@H]2C[C@H](C(=O)NCCCCN(C)C)[C@H](c3cccc(OCCO)c3)N2C1=O"
assay_metric = "z-score"
reported = -0.24

[[record]]
molecule = "COC(=O)[C@@]1(Cc2ccc(OC)cc2)[C@H]2c3cc(C(=O)N(C)C)n(Cc4cccc5ccccc45)c3C[C@H]2CN1C(=O)c1ccccc1"
assay_metric = "z-score"
reported = -0.669

[[record]]
molecule = "O=C1NC(=O)C2C1C=CC(C(O)Cc1ccccc1)N2Nc1ccc(Cl)cc1Cl (stereo unspecified)"
assay_metric = "z-score"
reported = -0.00872

[[record]]
molecule = "COC(=O)C(CC#Cc1ccc2c(c1)[C@]1(C(=O)N2)[C@H](C(=O)O)[C@H]2C(=O)O[C@H](c3ccccc3)[C@H](c3ccccc3)N2[C@@H]1c1ccc(O)cc1)C(=O)OC"
assay_metric = "z-score"
reported = -0.269

[[record]]
molecule = "CC(C)(C)OC(=O)CC[C@]1(C(=O)O)N=C(c2ccc(OCCCO)cc2)O[C@H]1c1ccccc1N=[N+]=[N-]"
assay_metric = "z-score"
reported = 0.328

[[record]]
molecule = "COCCOC(=O)N1C(=O)[C@@]2(c3cc(C#Cc4ccc(OC)cc4)ccc31)[C@H](C(N)=O)[C@H]1C(=O)O[C@H](c3ccccc3)[C@H](c3ccccc3)N1[C@@H]2c1ccccc1OCCO"
assay_metric = "z-score"
reported = 2.99

[[record]]
molecule = "CN(C)CCCNC(=O)[C@@]1(c2ccc([N+](=O)[O-])cc2)CC(=O)N(C2CCCCC2)[C@@H]1c1ccc(CO)cc1I"
assay_metric = "z-score"
reported = 0.499

[[record]]
molecule = "CCOC(=O)[C@H]1CC=C2CC1C(=O)N1CCC[C@@H]1[C@@H]2O[Si](C)(C)C(C)(C)C (stereo partly specified)"
assay_metric = "z-score"
reported = -1.07

[[record]]
molecule = "CC1(C)[C@@H]2CC(C(O)C3C=CC4C(=O)N(c5ccccc5)C(=O)C4N3Nc3ccccc3)=C[C@H]1C2 (stereo partly specified)"
assay_metric = "z-score"
reported = -1.46


* * *

assay: small-molecule microarray binders of probe aWnt5a, primary screen, biochemical, biotinylated probe, 635/667 nm fluorescence (AID 1113); settings: higher = more signal;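 note: score merges 667 nm fluorescence intensity with signal-to-noise per printed feature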
ASSAY_METRIC: composite z-score

[[record]]
smiles_code = "Cc1ccc(S[C@]2(C(=O)NCC(F)(F)F)CC(=O)N(C(C)C)[C@@H]2c2ccc(CO)cc2I)cc1"
reported = -0.101

[[record]]
smiles_code = "C=CCOC(=O)[C@@H]1[C@H]2C(=O)O[C@H](c3ccccc3)[C@H](c3ccccc3)N2[C@H](c2ccc(OCCOC(=O)[C@@H]3C[C@@H]4C(=O)N[C@@H](Cc5ccccc5)C(=O)N4[C@@H]3c3ccc(O)cc3)cc2)[C@@]12C(=O)Nc1ccc(I)cc12"
reported = -0.0981

[[record]]
smiles_code = "C=CCOC(=O)[C@@H]1[C@H]2C(=O)O[C@H](c3ccccc3)[C@H](c3ccccc3)N2[C@H](c2ccc(OCCOC(=O)[C@@H]3C[C@@H]4C(=O)N[C@@H](CCCC[N+](C)(C)C)C(=O)N4[C@@H]3c3cccc(OCCO)c3)cc2)[C@@]12C(=O)Nc1ccc(I)cc12"
reported = -0.0512


* * *

experiment: binders of probe aFSTL3 on microarray, primary screen, stem cell growth factor project, biochemical, small-molecule microarray, fluorescence 635/667 (AID 1064); conditions: higher = more signal;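 note: measures binding of the biotinylated anti-FSTL3 antibody to printed compounds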
ASSAY_METRIC: composite z-score

[[record]]
compound = "CCC(CC)C(O)C1C=CC2C(=O)N(C)C(=O)C2N1Nc1ccccc1 (centres undefined)"
reported = 0.53

[[record]]
compound = "O=C(NCc1ccccc1)[C@@H]1c2ccccc2C(=O)N(CC23CC4CC(CC(C4)C2)C3)[C@H]1c1ccc(CO)cc1"
reported = -0.906

[[record]]
compound = "COc1cc2c(cc1OC)CN(C(=O)[C@@H]1[C@H]3C(=O)O[C@H](c4ccccc4)[C@H](c4ccccc4)N3[C@H](c3ccc(O)cc3)[C@@]13C(=O)Nc1ccc(C#CC4(O)CCCCCC4)cc13)CC2"
reported = -1.38

[[record]]
compound = "COc1ccc([Si](C)(C)[C@@H]2[C@@H](CC(=O)N3Cc4ccccc4C[C@H]3CO)O[C@]3(C(=O)N(C)c4c(Br)cc(C)cc43)[C@H]2C)cc1"
reported = -0.184


* * *

experiment: PSAC antagonists in infected red cells, primary screen, cell-based, P. falciparum Indochina, OD700, 1 h (AID 1154); conditions: P. falciparum Indochina infected RBC osmotic lysis, higher = more signal, called active from +8 up or from −8 down
Entries annotated with measured z-score
ASSAY_METRIC: z-score

[[record]]
smiles_code = "COc1ccc(CCN2C(=O)[C@@]3(c4ccc([N+](=O)[O-])cc4)CC(=O)N(C4CCCCC4)[C@@H]3c3ccc(CO)cc32)cc1"
assay_metric = "z-score"
reported = -0.715

[[record]]
smiles_code = "O=C1[C@H]2C=C(Br)[C@H](C[C@@H]2OCCCCO)[C@@]12CO2"
assay_metric = "z-score"
reported = 1.31

[[record]]
smiles_code = "O=C1O[C@H](c2ccccc2)[C@H](c2ccccc2)N2[C@H]1[C@@H](C(=O)O)[C@]1(C(=O)Nc3ccc(C#CCCO)cc31)[C@H]2c1ccc(O)cc1"
assay_metric = "z-score"
reported = 1.43

[[record]]
smiles_code = "COc1ccc([C@H]2C[C@H]3C(Br)=C[C@@H]2C(=O)[C@]32CO2)cc1"
assay_metric = "z-score"
reported = 1.27

